test target: Keap1/Nrf2 (Homo sapiens, UniProt Q16236+Q14145)
test description: Inhibition of 5'-TAMRA tagged NRF2 (unknown origin)/human recombinant N-terminal Avi tagged KEAP-1 (321 to 609 residues) expressed in Baculovirus system infected in Sf9 cells protein-protein interaction at 0.03 uM by fluorescence polarisation assay relative to control
measured quantity: inhibition (%)

>>> obs_value("CCCCC1CCCN1C(=O)C1CCCC(c2cccc(-n3ncc(C(=O)O)c3C3CC3)c2)C1 (mixture of isomers)")
64
>>> obs_value("O=C(O)c1cnn(-c2cccc(-c3cccc(C(=O)N(CC4CC4)CC4CC4)c3F)c2)c1C1CC1")
46
>>> obs_value("CN(C)C(=O)c1cccc(-c2cccc(-n3ncc(C(=O)O)c3C3CC3c3cn(C)nn3)c2)c1 (racemic)")
53

I. CCCC1COCCN1C(=O)c1cccc(-c2cccc(-n3ncc(C(=O)O)c3C3CC3)c2)c1F (stereo not given)
II. CCCC1CCCCN1C(=O)c1cccc(-c2cccc(-n3ncc(C(=O)O)c3C3CC3c3ccccn3)c2)c1 (mixture of isomers)
Exercise: Input pair: I , II . Output: entry with lower inhibition. Indicate your choice by writing its label.
Key: II

###

test description: Permeability in artificial phospholipid membrane by AMPA based HPLC/UV analysis
Assay type: ADME, cell membranes
assay conditions: not told; read-out: permeability
measured quantity: Papp (×10⁻⁶ cm/s)

>>> obs_value("O=C(O)c1cnn(-c2cccc(-c3cccc(C(=O)N(CC4CC4)CC4CC4)c3F)c2)c1C1CC1")
1.6

A. CCCC1CCCCN1C(=O)c1cccc(-c2cccc(-n3ncc(C(=O)O)c3C3CC3c3cccnn3)c2)c1 (mixture of isomers)
B. CCCC1COCCN1C(=O)c1cccc(-c2cccc(-n3ncc(C(=O)O)c3C3CC3)c2)c1F (centres undefined)
Exercise: Quick check, higher Papp between A and B ? Indicate your choice by writing its label.
Key: A

###

test target: Keap1/Nrf2 (Homo sapiens, UniProt Q14145)
Sequence (Q16236 whole entry, the tested form may be a part): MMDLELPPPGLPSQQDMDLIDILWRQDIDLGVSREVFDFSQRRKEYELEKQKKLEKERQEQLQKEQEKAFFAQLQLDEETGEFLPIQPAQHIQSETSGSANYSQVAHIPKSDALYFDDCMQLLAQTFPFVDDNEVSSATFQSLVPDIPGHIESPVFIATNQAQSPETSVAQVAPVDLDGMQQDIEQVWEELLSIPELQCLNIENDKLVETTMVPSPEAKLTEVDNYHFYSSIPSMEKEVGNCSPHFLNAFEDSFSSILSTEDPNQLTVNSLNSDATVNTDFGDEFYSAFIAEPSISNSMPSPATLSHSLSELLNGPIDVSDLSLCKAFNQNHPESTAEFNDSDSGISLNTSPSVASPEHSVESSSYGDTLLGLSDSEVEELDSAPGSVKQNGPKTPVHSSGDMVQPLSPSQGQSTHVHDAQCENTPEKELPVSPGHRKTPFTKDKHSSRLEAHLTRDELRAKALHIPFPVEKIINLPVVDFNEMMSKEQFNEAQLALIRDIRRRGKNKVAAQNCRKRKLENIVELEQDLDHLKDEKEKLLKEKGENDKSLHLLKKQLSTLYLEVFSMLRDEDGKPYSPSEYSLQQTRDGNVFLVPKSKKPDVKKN
Sequence (Q14145 whole entry, the tested form may be a part): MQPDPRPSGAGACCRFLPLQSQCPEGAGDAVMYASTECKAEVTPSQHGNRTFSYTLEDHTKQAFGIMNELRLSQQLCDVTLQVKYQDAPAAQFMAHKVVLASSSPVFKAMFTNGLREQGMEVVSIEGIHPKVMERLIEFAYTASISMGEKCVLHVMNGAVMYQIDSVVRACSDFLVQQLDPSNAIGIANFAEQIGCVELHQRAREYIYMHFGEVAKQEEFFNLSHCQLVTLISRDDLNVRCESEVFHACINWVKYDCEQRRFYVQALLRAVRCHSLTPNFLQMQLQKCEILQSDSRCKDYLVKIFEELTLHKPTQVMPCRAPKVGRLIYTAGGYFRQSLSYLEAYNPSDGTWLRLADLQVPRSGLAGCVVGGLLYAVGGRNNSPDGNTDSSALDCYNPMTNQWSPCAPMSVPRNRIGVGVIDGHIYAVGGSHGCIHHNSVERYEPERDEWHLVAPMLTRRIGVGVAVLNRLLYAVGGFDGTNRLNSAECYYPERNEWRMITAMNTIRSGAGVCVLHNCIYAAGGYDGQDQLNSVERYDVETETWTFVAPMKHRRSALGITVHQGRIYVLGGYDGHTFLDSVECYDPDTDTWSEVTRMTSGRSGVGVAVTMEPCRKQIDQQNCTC
test description: Inhibition of 5'-TAMRA tagged NRF2 (unknown origin)/human recombinant N-terminal Avi tagged KEAP-1 (321 to 609 residues) expressed in Baculovirus system infected in Sf9 cells protein-protein interaction by fluorescence polarisation assay
assay conditions: read-out: IC50
pIC50: −log10 of the molar value.
measured quantity: pIC50

I. O=C(O)c1cnn(-c2cccc(-c3cccc(C(=O)N4CCCCC4)c3F)c2)c1C1CC1
II. CCCC1CCCCN1C(=O)C1CCCC(c2cccc(-n3ncc(C(=O)O)c3C3CC3)c2)C1 (mixture of isomers)
III. CN(C)C(=O)c1cccc(-c2cccc(-n3ncc(C(=O)O)c3C3CCCC3)c2)c1
Exercise: Which order do the items above take when sorted by pIC50 from high to low? To answer, arrange all of the labels according to the requested order.
Key: I, II, III
(I: 6.92, II: 6.64, III: 6.00)

1. CN(C)C(=O)c1cccc(-c2cccc(-n3ncc(C(=O)O)c3C3CC3c3cn(C)nn3)c2)c1 (racemic)
2. CN(C)C(=O)c1cccc(-c2cccc(-n3ncc(C(=O)O)c3C3CCCCC3)c2)c1
Exercise: Input pair: 1 , 2 . Output: entry with lower pIC50. Indicate your choice by writing its label.
Key: 2
(2: 5.74, 1: 7.39)

###

test target: Keap1/Nrf2 (Homo sapiens, UniProt Q14145)
test description: Inhibition of 5'-TAMRA tagged NRF2 (unknown origin)/human recombinant N-terminal Avi tagged KEAP-1 (321 to 609 residues) expressed in Baculovirus system infected in Sf9 cells protein-protein interaction by fluorescence polarisation assay
assay conditions: read-out: IC50
pIC50: −log10 of the molar value.
measured quantity: pIC50

>>> obs_value("CN(C)C(=O)c1cccc(-c2cccc(-n3ncc(C(=O)O)c3C(C)(C)C)n2)c1")
5.00
>>> obs_value("O=C(O)c1cnn(-c2cccc([C@@H]3CCC[C@H](C(=O)N4CCCCC4)C3)c2)c1C1CC1 (racemic)")
6.52

P. CN(C)C(=O)c1cccc(-c2cccc(-n3ncc(C(=O)O)c3C(F)(F)F)n2)c1
Q. CC(C)Oc1cccc(-c2cccc(-n3ncc(C(=O)O)c3C(F)(F)F)n2)c1
R. CN(C)C(=O)[C@H]1CCC[C@@H](c2cccc(-n3ncc(C(=O)O)c3C3CC3)c2)C1 (racemic)
S. O=C(O)c1cnn(-c2cccc(-c3cccc(CNS(=O)(=O)c4ccccc4)c3)c2)c1C(F)(F)F
Exercise: Sequence the entries by pIC50, beginning with the highest number. To answer, arrange all of the labels according to the requested order.
Key: R, P, Q, S
(R: 6.62, P: 6.00, Q: 5.07, S: 4.35)

Reference source for all entries: ChEMBL document CHEMBL5150008
